ASSAYED SYSTEM: T1, GFP-RIα D/D (bovine, UniProt P00514 1-109)
T1 construct: range 1-109; His tag cleaved with thrombin; also called dimerization/docking (D/D) domain of bovine RIα (residues 1-109) fused to GFP; not shown: green fluorescent protein (GFP)
T1 sequence (P00514 1-109): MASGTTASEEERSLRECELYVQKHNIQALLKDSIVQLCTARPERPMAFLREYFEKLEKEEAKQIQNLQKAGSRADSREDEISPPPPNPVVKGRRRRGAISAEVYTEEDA
ASSAY DETAILS: SPOT peptide array, anti-GFP detection
Description: In addition, the minimal sequence required for regulatory subunit binding was also assessed using N- and C-terminal truncations of the 27-residue human D-AKAP2 sequence. […] Binding was evaluated by incubating each membrane with GFP-RIα D/D and GFP-RIIα D/D as indicated below. […] Bound protein was detected using a primary antibody against GFP and enzyme conjugated secondary antibody for amplification of signal. The membrane was then analyzed by chemiluminescence.
Ends that are not written are not given here.
MEASURE: binding result

In [3]: df
Out[3]:
                                     binder         measure  measured_value
0  VQGNTDEAQEELAWK (also: cellulose-bound) [SEQ ID NO:94 peptide]  binding result      no binding
1  VQGNTDEAQE (also: cellulose-bound) [SEQ ID NO:99 peptide]  binding result      no binding
2  VQGNTDEAQEELA (also: cellulose-bound) [SEQ ID NO:96 peptide]  binding result      no binding
3  VQGNTDEAQEELAWKIAKMIVSDI (also: cellulose-bound) [SEQ ID NO:85 peptide]  binding result           binds
4  VQGNTDEAQEELAWKIAKMIVSDIM (also: cellulose-bound) [SEQ ID NO:84 peptide]  binding result           binds
5  VQGNTDEAQEELAWKIAK (also: cellulose-bound) [SEQ ID NO:91 peptide]  binding result      no binding
